Target: CD28 (Homo sapiens, UniProt P10747)
Assay: Jurkat/IL2 reporter assay: blockade of CD28 costimulation (plate-bound anti-CD3/CD86-Fc)
Assay type: cell-based
Design: host or cells: Jurkat cells expressing an IL-2-luciferase reporter
Conditions: Table E5; protein diluted to 40 nM before mixing with cells; 5 hours
reported_metric: Average Relative Luminescence Units

INSERT INTO assay_data (molecule, value) VALUES
  ('H18Y/M47I/T57I/A71G: variant CD80 IgV-Fc, IgV SEQ ID NO:189 (protein) VIHVTKEVKEVATLSCGYNVSVEELAQTRIYWQKEKKMVLTMMSGDINIWPEYKNRIIFDITNNLSIVILGLRPSDEGTYECVVLKYEKDAFKREHLAEVTLSVKAD', '924 Relative Luminescence Units'),
  ('Q27L/E35D/M47I/T57I/L70Q/E88D: variant CD80 IgV-Fc, IgV SEQ ID NO:204 (protein) VIHVTKEVKEVATLSCGHNVSVEELALTRIYWQKDKKMVLTMMSGDINIWPEYKNRIIFDITNNLSIVIQALRPSDEGTYECVVLKYDKDAFKREHLAEVTLSVKAD', '1180 Relative Luminescence Units'),
  ('M42I/I61V/A71D: variant CD80 IgV-Fc, IgV SEQ ID NO:187 (protein) VIHVTKEVKEVATLSCGHNVSVEELAQTRIYWQKEKKMVLTIMSGDMNIWPEYKNRTIFDVTNNLSIVILDLRPSDEGTYECVVLKYEKDAFKREHLAEVTLSVKAD', '2549 Relative Luminescence Units');

Would you mind listing Average Relative Luminescence Units for each of the following molecules?
1. E35D/D46V/L85Q: variant CD80 IgV-Fc, IgV SEQ ID NO:203 (protein) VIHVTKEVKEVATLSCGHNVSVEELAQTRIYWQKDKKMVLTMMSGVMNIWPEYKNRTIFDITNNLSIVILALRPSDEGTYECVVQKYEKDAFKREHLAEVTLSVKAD
2. M47V/I69F/A71D/V831: variant CD80 IgV-Fc, IgV SEQ ID NO:205 (protein) VIHVTKEVKEVATLSCGHNVSVEELAQTRIYWQKEKKMVLTMMSGDVNIWPEYKNRTIFDITNNLSIVFLDLRPSDEGTYECIVLKYEKDAFKREHLAEVTLSVKAD

1. 3230 Relative Luminescence Units
2. 290 Relative Luminescence Units

Kindly give each listed record's Average Relative Luminescence Units.
1. E35D/M47I/L70M: variant CD80 IgV-Fc, IgV SEQ ID NO:199 (SEQ ID NO:125 in b995) (protein) VIHVTKEVKEVATLSCGHNVSVEELAQTRIYWQKDKKMVLTMMSGDINIWPEYKNRTIFDITNNLSIVIMALRPSDEGTYECVVLKYEKDAFKREHLAEVTLSVKAD
2. E35D/T57A/A71D/L85Q: variant CD80 IgV-Fc, IgV SEQ ID NO:206 (protein) VIHVTKEVKEVATLSCGHNVSVEELAQTRIYWQKDKKMVLTMMSGDMNIWPEYKNRAIFDITNNLSIVILDLRPSDEGTYECVVQKYEKDAFKREHLAEVTLSVKAD
3. L70Q/A71D: variant CD80 IgV-Fc, IgV SEQ ID NO:220 (protein) VIHVTKEVKEVATLSCGHNVSVEELAQTRIYWQKEKKMVLTMMSGDMNIWPEYKNRTIFDITNNLSIVIQDLRPSDEGTYECVVLKYEKDAFKREHLAEVTLSVKAD
4. T13R/C16R/L70Q/A71D: variant CD80 IgV-Fc, IgV SEQ ID NO:155 (protein) VIHVTKEVKEVARLSRGHNVSVEELAQTRIYWQKEKKMVLTMMSGDMNIWPEYKNRTIFDITNNLSIVIQDLRPSDEGTYECVVLKYEKDAFKREHLAEVTLSVKAD
5. L25S/E35D/M47I/D90N: variant CD80 IgV-Fc, IgV SEQ ID NO:168 (protein) VIHVTKEVKEVATLSCGHNVSVEESAQTRIYWQKDKKMVLTMMSGDINIWPEYKNRTIFDITNNLSIVILALRPSDEGTYECVVLKYEKNAFKREHLAEVTLSVKAD
6. A71D: variant CD80 IgV-Fc, IgV SEQ ID NO:170 (protein) VIHVTKEVKEVATLSCGHNVSVEELAQTRIYWQKEKKMVLTMMSGDMNIWPEYKNRTIFDITNNLSIVILDLRPSDEGTYECVVLKYEKDAFKREHLAEVTLSVKAD

["1077 Relative Luminescence Units", "3213 Relative Luminescence Units", "1036 Relative Luminescence Units", "3204 Relative Luminescence Units", "2567 Relative Luminescence Units", "999 Relative Luminescence Units"]
